// data source = ChEMBL document CHEMBL1128866

# experiment notes: Peak oral plasma concentration was determined in rats by oral administration
# Assay type: ADME, organism-based
# Set-up: route oral
# experimental conditions: rat
endpoint: Cmax

- Cc1ccc(C(=O)N2CCc3ccccc3C2)cc1C(=O)N[C@@H](Cc1ccccc1)[C@H](O)CN1C[C@H]2CCCC[C@H]2C[C@H]1C(=O)NC(C)(C)C: < 100 nM
- CC(C)(C)NC(=O)c1ccccc1C[C@@H](O)[C@H](Cc1ccccc1)NC(=O)[C@H](CC(N)=O)NC(=O)c1ccc2ccccc2n1: < 100 nM
- Cc1ccc(C(=O)N(C)Cc2ccccn2)cc1C(=O)N[C@@H](Cc1ccccc1)[C@H](O)CN1C[C@H]2CCCC[C@H]2C[C@H]1C(=O)NC(C)(C)C: 4400 nM

###

# study target: Human immunodeficiency virus type 1 protease (Human immunodeficiency virus 1, UniProt Q72874)
endpoint: IC50 (nM)

- Cc1ccc(C(=O)N2CCc3ccccc3C2)cc1C(=O)N[C@@H](Cc1ccccc1)[C@H](O)Cc1ccccc1C(=O)NC(C)(C)C: 6.1
- Cc1ccc(C(=O)N2CCc3ccccc3C2)cc1C(=O)N[C@@H](Cc1ccccc1)[C@H](O)CN1C[C@H]2CCCC[C@H]2C[C@H]1C(=O)NC(C)(C)C: 13.8
- Cc1ccc(C(=O)N(C)Cc2ccccn2)cc1C(=O)N[C@@H](Cc1ccccc1)[C@H](O)CN1C[C@H]2CCCC[C@H]2C[C@H]1C(=O)NC(C)(C)C: 8.6
